Recorded IC50 for the following compounds
# targetOrTestSystem: Aromatase (Homo sapiens, UniProt P11511)
# Sequence (P11511 whole entry): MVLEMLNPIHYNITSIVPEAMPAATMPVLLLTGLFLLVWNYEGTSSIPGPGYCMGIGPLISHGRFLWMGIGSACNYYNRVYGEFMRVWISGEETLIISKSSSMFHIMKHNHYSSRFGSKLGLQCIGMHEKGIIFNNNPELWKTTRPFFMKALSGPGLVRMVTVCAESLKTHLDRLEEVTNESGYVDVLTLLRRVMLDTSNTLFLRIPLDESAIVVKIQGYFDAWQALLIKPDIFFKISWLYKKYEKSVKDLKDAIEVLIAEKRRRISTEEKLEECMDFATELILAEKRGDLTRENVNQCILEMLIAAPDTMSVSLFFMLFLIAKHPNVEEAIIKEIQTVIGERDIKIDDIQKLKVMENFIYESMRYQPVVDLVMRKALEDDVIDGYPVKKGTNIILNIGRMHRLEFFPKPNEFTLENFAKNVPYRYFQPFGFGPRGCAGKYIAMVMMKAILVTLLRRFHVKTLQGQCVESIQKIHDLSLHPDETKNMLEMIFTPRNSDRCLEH
# testProtocol: Inhibition of aromatase in JEG3 cell membrane
# unit: nM | format: bare number

Worked cases, answers included:
{"structureAsSmiles": "COc1cc(CN(c2ccc(C#N)cc2)n2cnnc2)cc(Cl)c1OS(N)(=O)=O", "targetOrTestSystem": "Aromatase (Homo sapiens, UniProt P11511)", "IC50 (nM)": 2.9}
{"structureAsSmiles": "N#Cc1ccc(N(Cc2ccc(O)c(I)c2)n2cnnc2)cc1", "targetOrTestSystem": "Aromatase (Homo sapiens, UniProt P11511)", "IC50 (nM)": 0.33}
{"structureAsSmiles": "N#Cc1ccc(N(Cc2ccc(Cl)c(O)c2)n2cnnc2)cc1", "targetOrTestSystem": "Aromatase (Homo sapiens, UniProt P11511)", "IC50 (nM)": 0.18}
{"structureAsSmiles": "N#Cc1ccc(N(Cc2ccc(O)c(C(F)(F)F)c2)n2cnnc2)cc1", "targetOrTestSystem": "Aromatase (Homo sapiens, UniProt P11511)", "IC50 (nM)": 0.88}
{"structureAsSmiles": "N#Cc1ccc(N(Cc2ccc(C(F)(F)F)c(O)c2)n2cnnc2)cc1", "targetOrTestSystem": "Aromatase (Homo sapiens, UniProt P11511)", "IC50 (nM)": 0.4}

Query: State its IC50: COc1cc(CN(c2ccc(C#N)cc2)n2cnnc2)cc(Cl)c1O
Reply: 0.51

Query: Please look at this compound and report its IC50: N#Cc1ccc(N(Cc2cc(Cl)c(O)c(Cl)c2)n2cnnc2)cc1
Reply: 7.6

Query: # return recorded IC50 for entry N#Cc1ccc(N(Cc2ccc(OS(N)(=O)=O)c(C#N)c2)n2cnnc2)cc1
Reply: 27

Query: Note down IC50 recorded for N#Cc1ccc(N(Cc2ccc(F)c(O)c2)n2cnnc2)cc1
Reply: 0.6

Query: Fill in IC50 for record COc1cc(CN(c2ccc(C#N)cc2)n2cnnc2)ccc1OS(N)(=O)=O
Reply: 42

Query: Provide measured IC50 value, entry: N#Cc1ccc(N(Cc2c(F)c(F)c(O)c(F)c2F)n2cnnc2)cc1
Reply: 159

###

This listing pairs molecules with measured IC50.
# targetOrTestSystem: UniProtKB P11511
# testProtocol: Inhibition of aromatase in JEG3 cell membrane

{"structureAsSmiles": "N#Cc1ccc(N(Cc2ccc(OS(N)(=O)=O)c(I)c2)n2cnnc2)cc1", "IC50": "1.5 nM"}
{"structureAsSmiles": "COc1ccc(CN(c2ccc(C#N)cc2)n2cnnc2)cc1O", "IC50": "1.2 nM"}

Query: Give the reported value of IC50 for this record: N#Cc1ccc(N(Cc2ccc(Br)c(O)c2)n2cnnc2)cc1
Reply: 0.5 nM

Query: Return value of IC50 for input COc1cc(CN(c2ccc(C#N)cc2)n2cnnc2)ccc1O , no commentary.
Reply: 2.8 nM

Query: Please look at this molecule and report its IC50: N#Cc1ccc(N(Cc2cccc(O)c2)n2cnnc2)cc1
Reply: 2.8 nM

Query: Report IC50 for N#Cc1ccc(N(Cc2ccc(O)c(C#N)c2)n2cnnc2)cc1
Reply: 24 nM
